Known pIC50 of a selection of molecules
# test system: K. pneumoniae LpxC (Klebsiella pneumoniae subsp. pneumoniae, UniProt A6T4N9)
# Sequence (A6T4N9 whole entry): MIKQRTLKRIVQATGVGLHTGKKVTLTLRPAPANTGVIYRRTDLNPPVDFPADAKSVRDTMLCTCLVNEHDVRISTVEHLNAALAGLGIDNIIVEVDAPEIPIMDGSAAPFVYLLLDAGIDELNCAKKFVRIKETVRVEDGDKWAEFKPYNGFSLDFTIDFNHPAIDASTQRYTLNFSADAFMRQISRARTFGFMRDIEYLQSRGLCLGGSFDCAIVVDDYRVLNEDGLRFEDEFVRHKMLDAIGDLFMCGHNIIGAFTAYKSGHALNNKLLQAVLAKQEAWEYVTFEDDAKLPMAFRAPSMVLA
Schema: pIC50 number; meaning minus log10 of the concentration expressed in molar units.

Use these answered entries as a reference point.
>  <molecule>
COC(CN)COc1ccc(-c2ccc(/C=C/[C@@H](CO)n3ccnc3[C@H](C)O)cc2)cc1 (mixture of isomers)

>  <attribute measured>
pIC50

>  <readout number>
8.21

$$$$
>  <molecule>
C[C@H](O)c1nccn1[C@@H](/C=C/c1ccc(-c2ccc(O[C@H]3COC[C@@H]3O)cc2)cc1)CO (racemic)

>  <attribute measured>
pIC50

>  <readout number>
9.05

$$$$
>  <molecule>
C[C@H](O)c1nccn1[C@@H](/C=C(\F)c1ccc(-c2ccc(OCC(O)CN)cc2)cc1)CO (single isomer, unassigned)

>  <attribute measured>
pIC50

>  <readout number>
8.12

$$$$
>  <molecule>
C[C@H](O)c1nccn1[C@@H](/C=C/c1ccc(-c2ccc(OC3CCN(CCO)CC3)cc2)cc1)CCO

>  <attribute measured>
pIC50

>  <readout number>
8.27

$$$$
>  <molecule>
C[C@H](O)c1nccn1[C@@H](/C=C/c1ccc(-c2ccc(C3CC(O)C3)cc2)cc1)CO (some centres unmarked)

>  <attribute measured>
pIC50

>  <readout number>
9.22

$$$$
>  <molecule>
C[C@H](O)c1nccn1[C@@H](/C=C/c1ccc(-c2ccc(C3CC(N4CC(O)C4)C3)cc2)cc1)CO (some centres unmarked)

>  <attribute measured>
pIC50

>  <readout number>
8.80

$$$$
>  <molecule>
CCOCC(O)COc1ccc(-c2ccc(/C=C/[C@@H](CO)n3ccnc3[C@H](C)O)cc2)cc1 (mixture of isomers)

>  <attribute measured>
pIC50

>  <readout number>
9.10

$$$$
>  <molecule>
C[C@H](O)c1nccn1[C@@H](/C=C/c1ccc(-c2ccc(OCCN(CCO)CCO)cc2)cc1)CO

>  <attribute measured>
pIC50

>  <readout number>
8.37

$$$$
>  <molecule>
C[C@H](O)c1nccn1[C@@H](/C=C/c1ccc(-c2ccc(OC[C@@H](O)CO)cc2F)cc1)CO

>  <attribute measured>
pIC50

>  <readout number>
8.74

$$$$
>  <molecule>
C[C@H](O)c1nccn1[C@@H](/C=C/c1ccc(-c2ccc(O[C@H]3COC[C@@H]3N)cc2)cc1)CO (racemic)

>  <attribute measured>
pIC50

>  <readout number>
8.72

$$$$

Exercise: Look up pIC50 for this molecule: C[C@H](O)c1nccn1[C@@H](/C=C/c1ccc(-c2ccc(OCC(N)CO)cc2)cc1)CCO (mixture of isomers)
Solution: 8.10

* * *

# System: K. pneumoniae ATCC13883
# protocol notes: Bacterial susceptibility testing, MIC by broth microdilution (CLSI)
# Assay type: cell-based
# condition parameters: Klebsiella pneumoniae, ATCC13883, broth microdilution, 35° C., 18-24 h; read-out: MIC K. pneumoniae ATCC13883
attribute measured: MIC (µg/mL)
Lab book: enter the figure in µg/mL, no units written.

>  <molecule>
C[C@H](O)c1nccn1[C@@H](/C=C/c1ccc(-c2ccc(C3CC(CNCCO)C3)cc2)cc1)CO (stereo partly shown) [Compound 61]

>  <measurement units>
µg/mL

>  <MIC>
8

$$$$
>  <molecule>
COC(=O)C1CC(c2ccc(-c3ccc(/C=C/[C@@H](CO)n4ccnc4[C@H](C)O)cc3)cc2)C1 (stereo partly shown) [Compound 67]

>  <measurement units>
µg/mL

>  <MIC>
1

$$$$
>  <molecule>
C[C@H](O)c1nccn1C/C=C/c1ccc(-c2ccc(OC3CCN(CCO)CC3)cc2)cc1 [Compound 1]

>  <measurement units>
µg/mL

>  <MIC>
1

$$$$
>  <molecule>
C[C@H](O)c1nccn1[C@@H](/C=C/c1ccc(-c2ccc(OC3CCN(CCO)CC3)cc2)cc1)CO [Compound 17]

>  <measurement units>
µg/mL

>  <MIC>
16

$$$$
>  <molecule>
C[C@H](O)c1nccn1[C@@H](/C=C/c1ccc(-c2ccc(C3CC(CNCC#N)C3)cc2)cc1)CO (stereo partly shown) [Compound 56]

>  <measurement units>
µg/mL

>  <MIC>
0.5

$$$$

Exercise: Look up MIC for this molecule: C[C@H](O)c1nccn1C/C=C/c1ccc(-c2ccc(OCCN3CC(CN)C3)cc2)cc1 [Compound 6]
Solution: 16

Exercise: How about C[C@H](O)c1nccn1[C@@H](/C=C/c1ccc(-c2ccc(OC[C@@H](O)CO)cc2F)cc1)CO [Compound 32] ?
Solution: 8

* * *

# test system: P. aeruginosa LpxC (Pseudomonas aeruginosa)
# protocol notes: LpxC Binding Assay (Rapid Fire MS assay)
attribute measured: IC50 (nM)
Lab book: enter the figure in nM, no units written.

Use these answered entries as a reference point.
>  <molecule>
C[C@H](O)c1nccn1[C@@H](/C=C/c1ccc(-c2ccc(OCC(N)CO)cc2)cc1)CO (mixture of isomers)

>  <test system>
P. aeruginosa LpxC (Pseudomonas aeruginosa)

>  <IC50 (nM)>
70.6

$$$$
>  <molecule>
C[C@H](O)c1nccn1[C@@H](/C=C/c1ccc(-c2ccc(C3CC(O)C3)cc2)cc1)CO (stereo partly shown)

>  <test system>
P. aeruginosa LpxC (Pseudomonas aeruginosa)

>  <IC50 (nM)>
12.6

$$$$
>  <molecule>
C[C@H](O)c1nccn1[C@@H](/C=C/c1ccc(-c2ccc(OC3CCN(CCO)CC3)cc2)cc1)CCO

>  <test system>
P. aeruginosa LpxC (Pseudomonas aeruginosa)

>  <IC50 (nM)>
50.1

$$$$
>  <molecule>
C[C@H](O)c1nccn1[C@@H](/C=C/c1ccc(-c2ccc(OC[C@@H](O)CO)cc2)cc1)CO

>  <test system>
P. aeruginosa LpxC (Pseudomonas aeruginosa)

>  <IC50 (nM)>
17.5

$$$$
>  <molecule>
C[C@H](O)c1nccn1[C@@H](/C=C/c1ccc(-c2ccc(OC[C@@H](O)CN(C)C)cc2)cc1)CO

>  <test system>
P. aeruginosa LpxC (Pseudomonas aeruginosa)

>  <IC50 (nM)>
17.4

$$$$

Exercise: Look up IC50 for this molecule: C[C@H](O)c1nccn1[C@@H](/C=C/c1ccc(-c2ccc(OCC(CO)N(C)C)cc2)cc1)CO (mixture of isomers)
Solution: 69.2

Exercise: How about C[C@H](O)c1nccn1[C@@H](/C=C(\F)c1ccc(-c2ccc(OCC(O)CN)cc2)cc1)CO (single isomer, unassigned) ?
Solution: 79.5

* * *

# test system: P. aeruginosa LpxC (Pseudomonas aeruginosa)
# Sequence (P47205 1-303): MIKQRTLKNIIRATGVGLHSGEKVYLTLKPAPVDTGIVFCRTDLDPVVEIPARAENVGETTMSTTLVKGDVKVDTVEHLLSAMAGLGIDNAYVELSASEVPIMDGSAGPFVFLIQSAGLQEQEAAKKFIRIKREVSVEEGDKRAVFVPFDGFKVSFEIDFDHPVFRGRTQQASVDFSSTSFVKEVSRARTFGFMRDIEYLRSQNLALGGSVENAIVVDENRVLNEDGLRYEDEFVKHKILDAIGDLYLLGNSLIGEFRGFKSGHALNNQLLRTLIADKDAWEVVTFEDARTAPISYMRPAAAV
# protocol notes: LpxC Binding Assay (Rapid Fire MS assay)
attribute measured: IC50 (nM)
Lab book: enter the figure in nM, no units written.

Use these answered entries as a reference point.
>  <molecule>
C[C@H](O)c1nccn1[C@@H](/C=C/c1ccc(-c2ccc(OCC(N)CO)cc2)cc1)CCO (mixture of isomers) [Compound 19]

>  <attribute measured>
IC50

>  <measurement units>
nM

>  <readout number>
62.3

$$$$
>  <molecule>
C[C@H](O)c1nccn1[C@@H](/C=C/c1ccc(-c2ccc(OC[C@@H](O)CO)cc2F)cc1)CO [Compound 32]

>  <attribute measured>
IC50

>  <measurement units>
nM

>  <readout number>
13.4

$$$$
>  <molecule>
C[C@H](O)c1nccn1C/C=C/c1ccc(-c2ccc(OC[C@H](N)CO)cc2)cc1 [Compound 3]

>  <attribute measured>
IC50

>  <measurement units>
nM

>  <readout number>
132

$$$$

Next item in the queue.
Exercise: Look up IC50 for this molecule: C[C@H](O)c1nccn1[C@@H](/C=C/c1ccc(-c2ccc(C3CC(NCCC#N)C3)cc2)cc1)CO (stereo partly shown) [Compound 37]
Solution: 15.2

* * *

# Test system: K. pneumoniae ATCC13883
# protocol notes: Bacterial susceptibility testing, MIC by broth microdilution (CLSI)
# Format: cell-based
# condition parameters: Klebsiella pneumoniae, ATCC13883, broth microdilution, 35° C., 18-24 h; read-out: MIC K. pneumoniae ATCC13883
The label is met for MIC below 8 µg/mL and not met for MIC equal to or exceeding 8 µg/mL.

>  <compound>
C[C@H](O)c1nccn1[C@@H](/C=C/c1ccc(-c2ccc(C3CC(NCC#N)C3)cc2F)cc1)CO (stereo partly shown)

>  <discrete label>
met

$$$$
>  <compound>
CCOCC(O)COc1ccc(-c2ccc(/C=C/[C@@H](CO)n3ccnc3[C@H](C)O)cc2)cc1 (mixture of isomers)

>  <discrete label>
met

$$$$
>  <compound>
C[C@H](O)c1nccn1[C@@H](/C=C/c1ccc(-c2ccc(C3CC(CNCC(O)CO)C3)cc2)cc1)CO (stereo partly shown)

>  <discrete label>
not met

$$$$
>  <compound>
C[C@H](O)c1nccn1[C@@H](/C=C/c1ccc(-c2ccc(OC[C@H](O)CN)cc2)cc1)CO

>  <discrete label>
not met

$$$$
>  <compound>
C[C@H](O)c1nccn1[C@@H](/C=C/c1ccc(-c2ccc(O[C@H]3COC[C@@H]3N)cc2)cc1)CO (racemic)

>  <discrete label>
met

$$$$
>  <compound>
C[C@H](O)c1nccn1[C@@H](/C=C/c1ccc(-c2ccc(C3CC(NC[C@@H]4CNC(=O)O4)C3)cc2)cc1)CO (stereo partly shown)

>  <discrete label>
met

$$$$

Switching to the query record.
Exercise: Strictly below 8 µg/mL in MIC? C[C@H](O)c1nccn1[C@@H](/C=C/c1ccc(-c2ccc(C3CC(NCc4ncon4)C3)cc2)cc1)CO (stereo partly shown)
Solution: met
